Molecular target: T1, 4H3920-AA
T1 chain: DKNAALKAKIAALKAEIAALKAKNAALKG
Assay: two-hybrid library CCmax;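 further: natural log of median RNA to DNA barcode read ratio; higher means stronger binding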
Settings: mean of both orientations
property.measured: interaction score
Respond numerically, and do not add a unit to the figure.

Please review the following examples before continuing.
DKNAALKAEIAALKAENAALEAEIAALKG [4H3666-AA] | -1.45
DKNAALEAKIAALKAKNAALEAKIAALKG [4H3446-AA] | -1.52
DKNAALKAEIAALKAKNAALKAKIAALEG [4H3709-AA] | -1.81
DKNAALKAEIAALEAEIAALEAKNAALEG [4H3591-AA] | 0.759
DENAALKAKIAALEAKNAALKAKIAALKG [4H1854-AA] | -1.51

Give interaction score for DKNAALEAKIAALKAENAALKAEIAALEG [4H3417-AA]
-1.61

// Input: DKIAALKAENAALEAENAALKAEIAALEG [4H2713-AA] . Output its interaction score only.
-1.61
